Entry source: patent US20100249123A1

Molecular target: rat follicle stimulating hormone receptor (rFSHR) (Rattus norvegicus, UniProt P20395)
Sequence (P20395 18-692): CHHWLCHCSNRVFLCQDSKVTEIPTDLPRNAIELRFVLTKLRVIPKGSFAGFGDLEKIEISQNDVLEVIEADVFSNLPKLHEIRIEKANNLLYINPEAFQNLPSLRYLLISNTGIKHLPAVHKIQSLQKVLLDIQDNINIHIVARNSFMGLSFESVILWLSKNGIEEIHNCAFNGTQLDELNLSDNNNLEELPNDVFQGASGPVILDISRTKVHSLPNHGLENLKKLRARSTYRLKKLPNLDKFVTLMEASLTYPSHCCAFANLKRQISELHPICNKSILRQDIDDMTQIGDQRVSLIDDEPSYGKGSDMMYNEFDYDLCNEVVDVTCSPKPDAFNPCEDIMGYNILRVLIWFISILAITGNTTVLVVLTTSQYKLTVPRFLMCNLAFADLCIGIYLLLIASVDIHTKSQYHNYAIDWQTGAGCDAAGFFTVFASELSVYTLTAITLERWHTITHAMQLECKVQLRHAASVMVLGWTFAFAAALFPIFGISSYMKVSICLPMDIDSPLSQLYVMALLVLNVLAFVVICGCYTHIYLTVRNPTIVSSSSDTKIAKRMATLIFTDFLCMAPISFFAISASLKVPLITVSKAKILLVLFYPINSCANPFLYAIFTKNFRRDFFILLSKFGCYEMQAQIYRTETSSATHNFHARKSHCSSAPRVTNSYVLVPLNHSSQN
Experiment: Intracellular cAMP measurement (HTRF) assay, antagonism of EC70 of hFSH
Details: HEK293 cells expressing rFSHR, 1 ng/ml hFSH (EC70), read-out: Class (IC50 to antagonise an EC70 of FSH receptors agonist such as hFSH)
From the text: Intracellular cAMP Measurement Assay The Intracellular cAMP measurement assay is a functional cell-based assay used to study GPCR function. This method relies on a Time-Resolved Fluorescence (HTRF) assay to measure the cAMP accumulation upon receptor-mediated Gs protein activation in cells expressing recombinant GPCR or in cells from native tissues. In brief, this method is a competitive immunoassay between native cAMP produced by cells and the cAMP labeled with a fluorescent tag. […]
pIC50: −log10 of the molar value.
value.kind: pIC50

Reference set, count: 2
COc1ccc(C(=O)Nc2ccc(C(C)(C)CCNC(=O)c3cnc4[nH]cnc4c3)cc2)cc1OC [Example 199]; 6.40 to 6.82
COc1ccc(C(=O)Nc2ccc(C(C)(C)CNC(=O)c3n[nH]c4ccccc34)c(Cl)c2)cc1OC [Example 113]; 6.40 to 6.82

Input COc1ccc(C(=O)Nc2ccc(Cl)c(C(C)(C)C#N)c2)cc1OC [Example 125] , output reported pIC50.
≤ 6.00

Respond only with pIC50 recorded for COc1ccc(C(=O)Nc2ccc(C(C)(C)CNC(=O)c3ccco3)cc2)cc1OC [Example 32]
6.40 to 6.82

Return pIC50 (reported value) for this compound: COc1ccc(C(=O)Nc2cccc(C3(CNC(=O)c4nn(C)c5ccccc45)CCCC3)c2)cc1OC [Example 102]
≤ 6.00

Quick one: give measured pIC50 for COc1ccc(C(=O)Nc2ccc(C(C)(C)C#N)c(-c3cccnc3)c2)cc1OC [Example 132]
6.40 to 6.82

// Input: COc1ccc(C(=O)Nc2ccc(C(C)(C)CNC(C)=O)c(-c3cccnc3)c2)cc1OC [Example 195] . Output its pIC50 only.
≤ 6.00

Retrieve pIC50 measured for COc1ccc(C(=O)Nc2cccc(C(C)(C)CNC(=O)c3cnc4ccccn34)c2)cc1OC [Example 203] and print it.
6.40 to 6.82
